System: J2 HIE monolayers
Assay: Cytotoxicity by LDH assay in J2 HIE monolayers
Settings: compound 10 μM, n = 1, LDH assay, J2 HIE monolayers infected with GII.4 HuNoV, 24 hpi, normalized to DMSO control
# (%) Cytotoxicity listing for each entry below
MEASUREMENT_NAME: (%) Cytotoxicity

{"columns": ["MOLECULE", "UNIT_LABEL", "NUMERIC_RESULT"],
 "data": [
  ["CC(C)OC(=O)[C@H](C)N[P@](=O)(CO[C@H](C)Cn1cnc2c(N)ncnc21)Oc1ccccc1 [Tenofovir alafenamide]", "%", -0.20],
  ["COC(=O)c1cc(OC)c2c(c1-c1c(CO)cc(OC)c3c1OCO3)OCO2", "%", 0.26],
  ["Cc1ccnc2c1NC(=O)c1cccnc1N2C1CC1", "%", 0.72],
  ["CC(C)=O.COC(=O)N[C@H](C(=O)N1CC2(CC2)C[C@H]1c1ncc(-c2ccc3c(c2)C(F)(F)c2cc(-c4ccc5nc([C@@H]6[C@H]7CC[C@H](C7)N6C(=O)[C@@H](NC(=O)OC)C(C)C)[nH]c5c4)ccc2-3)[nH]1)C(C)C", "%", 6.17],
  ["O=C(/C=C\\n1cnc(-c2cc(C(F)(F)F)cc(C(F)(F)F)c2)n1)NNc1ccccn1 [Verdinexor]", "%", 10.81],
  ["Cc1nc(N(C)C(=O)Cc2ccc(-c3ccccn3)cc2)sc1S(N)(=O)=O", "%", -1.63],
  ["NC(=O)c1nc(F)c[nH]c1=O", "%", -1.51]
]}

* * *

# (%) Cytotoxicity listing for each entry below
System: J2 HIE monolayers
Experiment: Cytotoxicity by LDH assay in J2 HIE monolayers
Settings: compound 10 μM, n = 1, LDH assay, J2 HIE monolayers infected with GII.4 HuNoV, 24 hpi, normalized to DMSO control
Counter-ions that a name gives are not always drawn.

{"columns": ["MOLECULE", "(%) Cytotoxicity"],
 "data": [
  ["CC(N)C12CC3CC(CC(C3)C1)C2 (stereo not drawn) [Rimantadine hydrochloride]", 2.41],
  ["Nc1ncnc2c1ncn2[C@@H]1O[C@H](COP(=O)(O)O)[C@@H](O)[C@H]1O.O [Adenosine 5'-monophosphate monohydrate]", 0.18],
  ["CC(C)c1cc(Oc2c(Cl)cc(-n3nc(C#N)c(=O)[nH]c3=O)cc2Cl)n[nH]c1=O [MGL3196]", -0.56],
  ["CC(C)OC(=O)[C@H](C)N[P@](=O)(OC[C@H]1O[C@@H](n2ccc(=O)[nH]c2=O)[C@](C)(F)[C@@H]1O)Oc1ccccc1 [Sofosbuvir]", 0.74],
  ["C[C@@H]1O[C@@H](O[C@H]2[C@H](Oc3cc(O)c4c(c3)O[C@H](c3ccc(O)cc3)CC4=O)O[C@H](CO)[C@@H](O)[C@@H]2O)[C@H](O)[C@H](O)[C@H]1O [Naringin]", 5.67],
  ["CC1(C)CC[C@]2(C(=O)O)CC[C@]3(C)C(=CC[C@@H]4[C@@]5(C)CC[C@H](O)C(C)(C)[C@@H]5CC[C@]43C)[C@@H]2C1 [Oleanolic Acid]", 4.14]
]}

* * *

# (%) Cytotoxicity listing for each entry below
Tested on: J2 HIE monolayers
Conditions: human, 24 h, 10 μM
Structures can show the parent of a compound that is named as a salt.

{"columns": ["MOLECULE", "(%) Cytotoxicity"],
 "data": [
  ["CN(C)CC[C@@H](c1ccc(Cl)cc1)c1ccccn1 [Dexchlorpheniramine Maleate]", -3.40],
  ["COC(=O)N[C@H](C(=O)N1CCC[C@H]1c1nc(-c2ccc(-c3ccc(-c4c[nH]c([C@@H]5CCCN5C(=O)[C@@H](NC(=O)OC)C(C)C)n4)cc3)cc2)c[nH]1)C(C)C [Daclatasvir dihydrochloride]", 5.28],
  ["O[C@H]1[C@H](O)[C@@H](O)[C@H](O)[C@@H](O)[C@H]1O [Inositol]", 2.88],
  ["O=c1[nH]cc(F)c(=O)[nH]1 [Fluorouracil]", -0.47],
  ["COc1cnc(-n2cnc(C)n2)c2c1c(C(=O)C(=O)N1CCN(C(=O)c3ccccc3)CC1)cn2COP(=O)(O)O [Fostemsavir]", -2.34],
  ["COc1ncnc(NS(=O)(=O)c2ccc(N)cc2)c1OC [Sulfadoxine]", 2.36],
  ["O=C(/C=C/c1ccc(O)cc1)c1ccc(O)cc1O [Isoliquiritigenin]", 0.86],
  ["CO/N=C(\\C(=O)N[C@@H]1C(=O)N2C(C(=O)O)=C(C[N+]3(C)CCCC3)CS[C@H]12)c1csc(N)n1 [Cefepime Dihydrochloride Monohydrate]", 3.73],
  ["O=C(O)c1ccccc1C(=O)Nc1ccc(S(=O)(=O)Nc2nccs2)cc1 [Phthalylsulfathiazole]", 2.05],
  ["O=C1c2cccc(O)c2C(=O)c2c(O)cc(CO)cc21 [Aloe-emodin]", 0.59],
  ["Cc1cccc(C)c1N(CC(=O)Nc1ccc(-c2ncon2)cc1)C(=O)C1CCS(=O)(=O)CC1 [Amenamevir]", 0.09],
  ["Nc1nc2c(ncn2CCC(CO)CO)c(=O)[nH]1 [Penciclovir]", 2.02],
  ["Nc1ncnc2c1ncn2[C@@H]1O[C@H](CO)[C@@H](O)[C@@H]1O [Vidarabine]", -2.58],
  ["CC(C)c1nc(CN(C)C(=O)N[C@H](C(=O)N[C@@H](Cc2ccccc2)C[C@H](O)[C@H](Cc2ccccc2)NC(=O)OCc2cncs2)C(C)C)cs1 [Ritonavir]", 1.11],
  ["Cc1c(O)cccc1C(=O)N[C@@H](CSc1ccccc1)[C@H](O)CN1C[C@H]2CCCC[C@H]2C[C@H]1C(=O)NC(C)(C)C [Nelfinavir Mesylate]", 4.06],
  ["Clc1ccc(Cn2c(CN3CCCC3)nc3ccccc32)cc1 [Clemizole]", 3.11]
]}

* * *

Test system: J2 HIE monolayers
Details: human, 24 h, 10 μM
Where a name gives a salt, the structure may show the parent alone.

{"columns": ["MOLECULE", "UNIT_LABEL", "(%) Cytotoxicity"],
 "data": [
  ["C[C@@H](c1ncncc1F)[C@](O)(Cn1cncn1)c1ccc(F)cc1F", "%", -1.63],
  ["CO[C@H]1/C=C/O[C@@]2(C)Oc3c(C)c(O)c4c(O)c(c(/C=N/N5CCN(C)CC5)c(O)c4c3C2=O)NC(=O)/C(C)=C\\C=C\\[C@H](C)[C@H](O)[C@@H](C)[C@@H](O)[C@@H](C)[C@H](OC(C)=O)[C@@H]1C", "%", 2.64],
  ["Cc1cn([C@H]2O[C@@H](CO)[C@H](O)[C@H]2F)c(=O)[nH]c1=O", "%", -0.09],
  ["Nc1nc(NC2CC2)c2ncn([C@H]3C=C[C@@H](CO)C3)c2n1", "%", 0.27],
  ["C=CC1=C(C(=O)O)N2C(=O)[C@@H](NC(=O)/C(=N\\O)c3csc(N)n3)[C@H]2SC1", "%", 2.33],
  ["OC[C@H]1O[C@@H](O[C@@H]2OC=C[C@H]3[C@H](O)[C@@H]4O[C@]4(CO)[C@@H]23)[C@H](O)[C@@H](O)[C@@H]1O", "%", 3.07],
  ["Nc1ccn([C@@H]2CS[C@H](CO)O2)c(=O)n1", "%", 0.86],
  ["CCOC(=O)c1ccc(OCCC2CCN(c3ccc(C)nn3)CC2)cc1", "%", -3.64],
  ["CC(C)[C@H](N)C(=O)OCCOCn1cnc2c(=O)[nH]c(N)nc21 [Valacyclovir hydrochloride]", "%", 0.09],
  ["CCOCc1nc2c(N)nc3ccccc3c2n1CC(C)(C)O", "%", 2.61],
  ["OC[C@H]1O[C@@H]2O[C@H]3[C@H](O)[C@@H](O)[C@@H](O[C@H]4[C@H](O)[C@@H](O)[C@@H](O[C@H]5[C@H](O)[C@@H](O)[C@@H](O[C@H]6[C@H](O)[C@@H](O)[C@@H](O[C@H]7[C@H](O)[C@@H](O)[C@@H](O[C@H]8[C@H](O)[C@@H](O)[C@@H](O[C@H]1[C@H](O)[C@H]2O)O[C@@H]8CO)O[C@@H]7CO)O[C@@H]6CO)O[C@@H]5CO)O[C@@H]4CO)O[C@@H]3CO", "%", -0.91],
  ["COC(=O)N[C@H](C(=O)N[C@@H](Cc1ccccc1)[C@@H](O)CN(Cc1ccc(-c2ccccn2)cc1)NC(=O)[C@@H](NC(=O)OC)C(C)(C)C)C(C)(C)C", "%", 0.72],
  ["Nc1nc(=O)n([C@@H]2CS[C@H](CO)O2)cc1F", "%", 2.80],
  ["NCCCNCCCCNCCCN", "%", 2.77]
]}
